target: monkey DLL3 on CHO-K1-cyno DLL3 cells (cynomolgus monkey); assay: FACS, CHO-K1-cyno DLL3 cells, 0.8 nM antibody
Sequence (chain, as listed by the source limits assumed): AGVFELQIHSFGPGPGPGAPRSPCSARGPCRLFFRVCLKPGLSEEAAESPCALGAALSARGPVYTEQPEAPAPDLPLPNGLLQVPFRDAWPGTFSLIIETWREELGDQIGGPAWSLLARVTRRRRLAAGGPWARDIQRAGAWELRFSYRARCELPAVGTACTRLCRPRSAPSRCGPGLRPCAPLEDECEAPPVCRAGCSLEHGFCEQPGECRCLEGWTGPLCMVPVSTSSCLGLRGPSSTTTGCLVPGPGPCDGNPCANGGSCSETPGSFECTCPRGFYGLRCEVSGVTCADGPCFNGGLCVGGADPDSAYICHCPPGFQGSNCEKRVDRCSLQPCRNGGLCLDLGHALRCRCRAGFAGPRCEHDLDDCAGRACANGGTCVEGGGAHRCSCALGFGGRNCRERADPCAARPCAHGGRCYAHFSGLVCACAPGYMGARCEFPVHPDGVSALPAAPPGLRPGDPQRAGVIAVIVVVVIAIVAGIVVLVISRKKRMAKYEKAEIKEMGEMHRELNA
Consider the following binders and their measured MFI readings.
Report as a plain number; the unit MFI is understood.

Hab014VL2VH1-hFc (scFv, part only; not given: scFv linker and human IgG1 Fc, V domains shown, not shown: another chain or arm of the molecule; a dimerising Fc or GST; small tags and cut ends) VL: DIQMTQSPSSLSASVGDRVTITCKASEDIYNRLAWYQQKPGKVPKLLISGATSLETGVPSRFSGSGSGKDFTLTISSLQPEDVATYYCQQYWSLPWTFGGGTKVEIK VH: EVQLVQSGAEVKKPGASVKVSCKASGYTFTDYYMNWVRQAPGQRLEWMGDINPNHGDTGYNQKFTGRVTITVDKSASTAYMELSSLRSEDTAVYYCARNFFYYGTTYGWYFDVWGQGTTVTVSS; 10100
Hab008L3H2a-hFc (scFv, part only; not given: VL-VH linker and human IgG1 Fc, V domains shown, not shown: another chain or arm of the molecule; a dimerising Fc or GST; small tags and cut ends) VL: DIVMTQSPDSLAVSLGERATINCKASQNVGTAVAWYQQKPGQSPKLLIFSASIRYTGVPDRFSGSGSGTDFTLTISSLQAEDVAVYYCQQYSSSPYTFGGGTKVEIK VH: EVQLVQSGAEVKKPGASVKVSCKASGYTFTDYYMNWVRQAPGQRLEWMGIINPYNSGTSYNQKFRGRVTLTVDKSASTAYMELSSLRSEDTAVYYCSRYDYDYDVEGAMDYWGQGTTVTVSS; 3980
Hab006VL4VH1-hFc (scFv, part only; not given: scFv linker and human IgG1 Fc, V domains shown, not shown: another chain or arm of the molecule; a dimerising Fc or GST; small tags and cut ends) VL: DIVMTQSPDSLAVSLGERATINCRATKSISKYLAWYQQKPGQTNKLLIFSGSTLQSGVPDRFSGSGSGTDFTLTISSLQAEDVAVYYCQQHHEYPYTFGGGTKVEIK VH: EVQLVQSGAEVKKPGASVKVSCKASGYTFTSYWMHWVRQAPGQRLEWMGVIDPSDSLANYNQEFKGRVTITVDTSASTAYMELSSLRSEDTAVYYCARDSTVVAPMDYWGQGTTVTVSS; 7500

Value of MFI reported for the binder Hab009VL3aVH1-hFc (scFv, part only; not given: VL-VH linker and human IgG1 Fc, V domains shown, not shown: another chain or arm of the molecule; a dimerising Fc or GST; small tags and cut ends) VL: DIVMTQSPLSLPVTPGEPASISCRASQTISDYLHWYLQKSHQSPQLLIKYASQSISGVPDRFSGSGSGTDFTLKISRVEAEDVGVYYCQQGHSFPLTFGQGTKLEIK VH: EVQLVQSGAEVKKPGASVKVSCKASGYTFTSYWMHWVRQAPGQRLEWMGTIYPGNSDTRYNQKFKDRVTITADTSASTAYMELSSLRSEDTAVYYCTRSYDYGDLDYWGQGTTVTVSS is 24700

Value of MFI reported for the binder Hab008L1H2a-hFc (scFv, part only; not given: VL-VH linker and human IgG1 Fc, V domains shown, not shown: another chain or arm of the molecule; a dimerising Fc or GST; small tags and cut ends) VL: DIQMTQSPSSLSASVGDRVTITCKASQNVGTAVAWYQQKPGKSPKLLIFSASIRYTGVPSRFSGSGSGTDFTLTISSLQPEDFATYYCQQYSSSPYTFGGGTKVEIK VH: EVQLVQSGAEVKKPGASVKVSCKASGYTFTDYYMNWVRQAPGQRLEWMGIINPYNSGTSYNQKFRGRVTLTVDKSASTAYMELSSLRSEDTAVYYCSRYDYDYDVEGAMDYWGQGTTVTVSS is 7010

Value of MFI reported for the binder Hab015VL5VH1b-hFc (scFv, part only; not given: VL-VH linker and human IgG1 Fc, V domains shown, not shown: another chain or arm of the molecule; a dimerising Fc or GST; small tags and cut ends) VL: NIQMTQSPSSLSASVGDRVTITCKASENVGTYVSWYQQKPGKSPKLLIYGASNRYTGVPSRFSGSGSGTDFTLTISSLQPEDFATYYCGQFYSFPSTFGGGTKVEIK VH: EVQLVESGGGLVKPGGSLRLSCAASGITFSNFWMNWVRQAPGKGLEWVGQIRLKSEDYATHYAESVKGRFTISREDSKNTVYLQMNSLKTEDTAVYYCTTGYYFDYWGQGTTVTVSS is 4140

Value of MFI reported for the binder Hab014VL3VH1-hFc (scFv, part only; not given: VL-VH linker and human IgG1 Fc, V domains shown, not shown: another chain or arm of the molecule; a dimerising Fc or GST; small tags and cut ends) VL: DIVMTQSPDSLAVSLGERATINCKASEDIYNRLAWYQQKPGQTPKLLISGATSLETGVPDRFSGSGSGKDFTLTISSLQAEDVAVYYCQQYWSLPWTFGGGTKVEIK VH: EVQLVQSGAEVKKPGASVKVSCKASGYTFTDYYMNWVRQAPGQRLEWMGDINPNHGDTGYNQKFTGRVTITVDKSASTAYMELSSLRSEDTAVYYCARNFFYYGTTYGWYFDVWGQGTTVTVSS is 8680

Value of MFI reported for the binder Hab015VL5VH1a-hFc (scFv, part only; not given: scFv linker and human IgG1 Fc, V domains shown, not shown: another chain or arm of the molecule; a dimerising Fc or GST; small tags and cut ends) VL: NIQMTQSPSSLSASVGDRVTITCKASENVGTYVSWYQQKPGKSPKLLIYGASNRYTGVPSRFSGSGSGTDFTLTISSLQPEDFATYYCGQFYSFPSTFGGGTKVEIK VH: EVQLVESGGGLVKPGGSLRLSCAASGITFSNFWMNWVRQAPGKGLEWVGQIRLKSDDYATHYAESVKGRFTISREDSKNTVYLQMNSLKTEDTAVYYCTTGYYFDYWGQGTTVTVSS is 4340

Value of MFI reported for the binder Hab006VL4VH2-hFc (scFv, part only; not given: scFv linker and human IgG1 Fc, V domains shown, not shown: another chain or arm of the molecule; a dimerising Fc or GST; small tags and cut ends) VL: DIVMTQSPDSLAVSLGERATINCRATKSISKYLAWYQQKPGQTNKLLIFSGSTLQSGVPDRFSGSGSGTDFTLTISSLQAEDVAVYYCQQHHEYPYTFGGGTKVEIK VH: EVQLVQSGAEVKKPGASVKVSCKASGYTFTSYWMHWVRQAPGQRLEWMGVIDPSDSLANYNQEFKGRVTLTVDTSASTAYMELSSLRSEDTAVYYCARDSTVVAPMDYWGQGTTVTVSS is 7810

Value of MFI reported for the binder Hab015VL5VH5a-hFc (scFv, part only; not given: scFv linker and human IgG1 Fc, V domains shown, not shown: another chain or arm of the molecule; a dimerising Fc or GST; small tags and cut ends) VL: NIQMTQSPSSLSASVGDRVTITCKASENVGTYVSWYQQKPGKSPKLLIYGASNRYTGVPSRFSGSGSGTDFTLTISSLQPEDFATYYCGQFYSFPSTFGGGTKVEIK VH: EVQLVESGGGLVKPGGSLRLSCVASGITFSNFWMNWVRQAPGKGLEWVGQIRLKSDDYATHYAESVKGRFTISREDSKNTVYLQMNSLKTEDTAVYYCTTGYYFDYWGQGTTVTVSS is 4590
